test system: NCI/ADR-RES ovarian; test: NCI-60 one-dose screen, 48 h; details: 10 µM unless noted
Compounds without any hit were thinned out: in the full panel of roughly 83,000, 20% have a hit. Activity calls are given as the source filed them. Rule for the calls: active = growth percent below 10; inactive = the rest.
Please state which outcome applies, choosing from active, inactive

Sample answers from the record:
# compound, target or test system, assigned class
measured = [
    ("CCC(=O)c1cc([N+](=O)[O-])c(Br)s1", "NCI/ADR-RES ovarian", "inactive"),
    ("CCN1CCCC(Nc2cc(C)nc(/N=C(/N)Nc3ccc(Cl)c(Cl)c3)n2)C1 (centres undefined)", "NCI/ADR-RES ovarian", "inactive"),
    ("NC(CS/C(Cl)=C/Cl)C(=O)O (centres undefined)", "NCI/ADR-RES ovarian", "inactive"),
    ("Oc1c(Cl)cc(Cl)cc1C(c1cc(Cl)cc(Cl)c1O)C(Cl)(Cl)Cl", "NCI/ADR-RES ovarian", "active"),
]

Fill in: this test's call for CN(C)CCN(C)CC(C)(C)C(=O)/C=C/c1ccc(Cl)c(Cl)c1 is ___
active

Proceed to Oc1ccc(Nc2ccc3ccccc3c2)cc1
inactive

Here is the next compound: CCCCCCCCCCCC[n+]1ccc(CCCCCCCCC)cc1
inactive

Cool, now COC(=O)c1ccc(=O)c2nc3/c(=C/O)c(O)cc(=O)c3[nH]c12
inactive

Same for CC(C)c1ccc(Nc2n[nH]c(=S)s2)cc1
inactive

###

system: MDA-MB-435 melanoma; assay: NCI-60 one-dose screen, 48 h (100 = growth as untreated, 0 = no growth, -100 = all killed); settings: 10 µM unless noted
Compounds without any hit were thinned out: in the full panel of roughly 83,000, 20% have a hit.
// NB: equality with 80% counts as Condition not met; only growth strictly below is Condition met

Below are worked cases with known answers.
# compound, target or test system, assigned class
measured = [
    ("O=C(C[P+](c1ccccc1)(c1ccccc1)c1ccccc1)c1ccccc1", "MDA-MB-435 melanoma", "Condition not met"),
    ("N#CC(=C1SCS1)[N+](=O)[O-]", "MDA-MB-435 melanoma", "Condition met"),
]

Criterion: growth strictly below 80%. Is it met by Oc1ccc2ccccc2c1N=Nc1ccccn1 ?
Condition met

Would you kindly repeat that for NNc1cccc([N+](=O)[O-])c1 ?
Condition not met

###

Test system: TK-10 renal
Test: NCI-60 one-dose screen, 48 h (100 = growth as untreated, 0 = no growth, -100 = all killed)
Conditions: 10 µM unless noted
Description: Growth inhibition of the TK-10 human tumor cell line is measured as a screen for anti-cancer activity. Cells are grown in 96 well plates and exposed to the test compound for 48 hours. Compounds are tested at a single concentration, which is 10^-5 M for most compounds. The reported endpoint is percent growth (GI% or GIPRCNT), where numbers from 0 - 100% represent growth inhibition, and numbers from -100% - 0 represent cell death. For example, a value of 40 represents 60% growth inhibition. […]
This is part of a sample that, as a whole, favours compounds with a hit. Of some 83,000 tested, about 20% had one in any assay.
measurement kind: growth (%)
Answers are plain numbers, in %.

Use these answered entries as a reference point.
# compound, growth (%)
rows = [
    ("O=C(Nc1cccc(C(F)(F)F)c1)Oc1ccc(Cl)c2cccnc12", 72.2),
    ("Oc1cc(Cl)ccc1Cc1ccc(Cl)cc1O", 95.6),
    ("CCNc1nnnn1CC", 106),
]

Record growth per entry; entries follow.
1. O=C(OC12CC3CC(CC(C3)C1)C2)c1ccc(NCc2cc(O)ccc2O)cc1
2. N#CC(=C1SCS1)[N+](=O)[O-]
3. COc1cccc2c1C(=O)c1c(O)c3c(c(O)c1C2=O)C[C@@](O)(C(=O)CO)C[C@@H]3OC1CC(OC(C)=O)C(OC(C)=O)C(C)O1 (stereo partly specified)
4. CN(C)c1ccc2cc3c(cc2c1)Oc1ccccc1N3.[Cl][Zn][Cl]
5. Oc1ccc(Nc2ccc3ccccc3c2)cc1

[-95.9, 3.93, -36.3, 77.4, 45.3]
